Across several studies, compounds have been characterized by their Ki on D(2) dopamine receptor (Rattus norvegicus, UniProt P61169); a selection follows.
Sequence (P61169 whole entry): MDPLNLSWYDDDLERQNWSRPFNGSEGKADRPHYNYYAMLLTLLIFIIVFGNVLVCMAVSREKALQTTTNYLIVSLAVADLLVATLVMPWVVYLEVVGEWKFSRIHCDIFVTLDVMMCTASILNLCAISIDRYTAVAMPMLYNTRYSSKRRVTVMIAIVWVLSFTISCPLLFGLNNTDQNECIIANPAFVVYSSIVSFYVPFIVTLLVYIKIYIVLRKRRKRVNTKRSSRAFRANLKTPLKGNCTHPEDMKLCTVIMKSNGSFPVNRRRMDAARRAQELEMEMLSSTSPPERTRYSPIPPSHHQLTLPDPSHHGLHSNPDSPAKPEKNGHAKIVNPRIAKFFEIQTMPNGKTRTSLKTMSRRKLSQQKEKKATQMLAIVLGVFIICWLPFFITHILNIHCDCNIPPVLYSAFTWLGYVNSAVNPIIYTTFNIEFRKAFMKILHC
Numbers only, in nM.

Items follow; give Ki for each.
1. Cc1cccc([C@@H]2CN(C)CCc3c2cc(O)c(O)c3Cl)c1
2. Cc1[nH]cnc1CC1CCc2c(C)c3ccccc3n2C1=O (configuration not stated)
3. Cc1cccc([C@H]2CN(C)CCc3c2cc(O)c(O)c3Cl)c1
4. CN1CCN(C2=Cc3cc(Cl)ccc3C(=CC#N)c3ccccc32)CC1

a:
515
0.01
920
39.8

Items follow; give Ki for each.
1. Cc1cccc([C@@H]2CN(C)CCc3c2cc(O)c(O)c3Br)c1
2. Fc1ccc(N2CCN(CCC3OCCc4ccccc43)CC2)cc1 (configuration not stated)
3. CCN1CCN(c2cc(-c3ccc(F)cc3)c3c(n2)CCCCCC3)CC1

a:
1. 440
2. 199
3. 14.8

Items follow; give Ki for each.
1. CN1CCc2c(cc(O)c(O)c2Br)[C@H](c2cccc(C(F)(F)F)c2)C1
2. CCS(=O)(=O)c1cc(C(=O)NCC2CCCN2CC2CC2)c(OC)cc1I (configuration not stated)
3. OCCN1CCN(CCCN2c3ccccc3Sc3ccc(Cl)cc32)CC1
4. COc1ccc2c(c1)N(C[C@@H](C)CN(C)C)c1ccccc1S2
5. CN1CCN(C2=Nc3cscc3C(=CC#N)c3cscc32)CC1
6. C=CCN1CCc2c(cc(O)c(O)c2Br)C(c2ccccc2C)C1 (configuration not stated)

a:
1050
0.61
1.3
15
1580
239

Short answer for Oc1ccc2c(c1O)Cc1cccc3c1[C@H]2CNC3C(F)(F)C(F)(F)C(F)(F)C(F)(F)F (mixture of isomers) : Ki was 78

---

Across several studies, compounds have been characterized by their Ki on D(2) dopamine receptor (Rattus norvegicus, UniProt P61169); a selection follows.
One number for each entry, in nM.

Short answer for Cc1ccccc1C1CNCCc2c1cc(O)c(O)c2Br (stereo not given) : Ki was 19.5

Short answer for `CN1CCN(CC/C=C2/c3ccccc3Sc3ccc(S(=O)(=O)N(C)C)cc32)CC1` : Ki was 0.63

Short answer for O=[N+]([O-])c1cc(O)c(O)c2c1[C@@H]1CNCc3cccc(c31)C2 (racemic) : Ki was 1100

Short answer for `CN1CCN(C2=Nc3cc(F)ccc3Cc3ccccc32)CC1` : Ki was 316

Let us examine a further case.
Short answer for C=CCN1CCc2c(cc(O)c(O)c2Br)C(c2ccc(C)cc2)C1 (stereo not given) : Ki was 1700

---

Across several studies, molecules have been characterized by their Ki on D(2) dopamine receptor (Rattus norvegicus); a selection follows.
One number for each entry, in nM.

The cases that follow already have their Ki on record.
Record for `CCN(CC)CCNC(=O)c1cc(S(C)(=O)=O)ccc1OC` under target or system D(2) dopamine receptor (Rattus norvegicus): Ki reported as 77

Record for CCc1c(C)[nH]c2c1C(=O)C(CN1CCOCC1)CC2 (stereo not given) under target or system D(2) dopamine receptor (Rattus norvegicus): Ki reported as 15.8

Record for `COc1cc2nc(N3CCN(C(=O)c4ccco4)CC3)nc(N)c2cc1OC` under target or system D(2) dopamine receptor (Rattus norvegicus): Ki reported as 8790

Items follow; give Ki for each.
1. Oc1ccc2c(c1)C[C@@H]1[C@@H](CCCN1CCN1CCN(c3ccccc3)CC1)C2 (racemic)
2. CN(C)CCCN1c2ccccc2CCc2ccccc21
3. COc1ccccc1N1CCN(CCN(C(=O)C2CCCCC2)c2ccccc2OC)CC1
4. CN1CCN(C2=Nc3ccccc3Oc3ccc(Cl)cc32)CC1
5. CC1(C)c2cccc3c2[C@@H](CNC3)c2ccc(O)c(O)c21 (racemic)
6. Oc1ccc2c(c1O)Cc1c(F)ccc3c1C2CNC3 (stereo not given)
7. Cc1ccc(N(CC2=NCCN2)c2cccc(O)c2)cc1

a:
1. 3330
2. 942
3. 316
4. 7.94
5. 390
6. 170
7. 1770

Items follow; give Ki for each.
1. CC1CCN(CCCC(=O)c2ccc(F)cc2)CC1
2. OCCC1CCN(CCC=C2c3ccc(F)cc3Sc3ccc(C(F)(F)F)cc32)CC1
3. C=CCN1CCc2c(cc(O)c(O)c2Cl)C(c2cccc(C)c2)C1 (stereo not given)
4. Cc1cccc(C2CNCCc3c2cc(O)c(O)c3Cl)c1 (stereo not given)

a:
[200, 1, 119, 5000]
